- Tested on: MOLT-4 leukemia
- assayProtocol: NCI tumour cell line growth inhibition, 48 h
Can you tell me TGI for the items I'm about to list?

Query: What value of TGI has been recorded for this entry: `Cc1ccc(S(=O)(=O)NC(=O)Nc2cccc(S(N)(=O)=O)c2)cc1`
Result: > 100 µM

Query: What value of TGI has been recorded for this entry: `N#Cc1ccc(/C=C(/C(=O)c2ccccc2)c2ccccc2)cc1`
Result: 10.4 µM

Query: What value of TGI has been recorded for this entry: CCC1C(C)C=NN1c1nc(N)nc(C(C#N)=Nc2ccc(N(C)C)cc2)n1 (centres undefined)
Result: > 50 µM

Query: What value of TGI has been recorded for this entry: `CC1=C(C(=O)NCc2ccccc2)C(c2ccc(Cl)c(Cl)c2)C(C(=O)NCc2ccccc2)=C(C)N1`
Result: > 100 µM

----------
Can you tell me TGI for the items I'm about to list?
- Test system: ACHN renal
- assayProtocol: NCI tumour cell line growth inhibition, 48 h
Give just the number in µM; leave the unit off.

Query: What value of TGI has been recorded for this entry: `O=[N+]([O-])c1ccc(-n2nc3ccc4c(no[n+]4[O-])c3[n+]2[O-])c([N+](=O)[O-])c1`
Result: 5.7

Query: What value of TGI has been recorded for this entry: `N#Cc1ccc(/C=C(/C(=O)c2ccccc2)c2ccccc2)cc1`
Result: 33.1

Query: What value of TGI has been recorded for this entry: C=C1C(=O)O[C@H]2C1C[C@@H](O)/C(C)=C/CC[C@@]1(C)O[C@H]21 (some centres undefined)
Result: 37.7

Query: What value of TGI has been recorded for this entry: `CC(C)(C)c1cc(C(=O)Nc2ccc(C(=O)NCCN)cc2)cc(C(C)(C)C)c1`
Result: 18.7

----------
- Test system: 786-0 renal
- assayProtocol: NCI tumour cell line growth inhibition, 48 h
measuredAttribute: TGI

Query: What value of TGI has been recorded for this entry: `c1ccc2c(c1)nn1c3ccc4nonc4c3[n-][n+]21`
Result: > 100 µM

Query: What value of TGI has been recorded for this entry: `COc1cc2c(oc(=O)c3c4occc4cc(OC)c23)c2cccc(OCc3ccccc3)c12`
Result: > 100 µM

Query: What value of TGI has been recorded for this entry: `Nc1c(OCC(=O)O)ccc2cc(S(=O)(=O)O)ccc12`
Result: > 100 µM

Query: What value of TGI has been recorded for this entry: CC(C)(C)C1CCC2c3c([nH]c4ncccc34)C3C(=O)N(c4ccccc4)C(=O)C3C2C1 (centres undefined)
Result: > 100 µM

Query: What value of TGI has been recorded for this entry: `COCCOCCOCc1n(Cc2ccc3ccccc3c2)c2ccccc2[n+]1Cc1ccc2ccccc2c1`
Result: 2.65 µM

Query: What value of TGI has been recorded for this entry: `Cc1ccc(S(=O)(=O)NC(=O)Nc2cccc(S(N)(=O)=O)c2)cc1`
Result: > 100 µM

Query: What value of TGI has been recorded for this entry: `Cn1c(=O)c2sc3c4sc5c(=O)n(C)c6ccccc6c5c4sc3c2c2ccccc21`
Result: > 100 µM

Query: What value of TGI has been recorded for this entry: Cc1c(O)c(OC2OC(CO)C(O)C(O)C2O)cc2c1C=C[C@@H]1[C@@]2(C)C(=O)C[C@]2(C)[C@@H]([C@@](C)(O)C(O)/C=C/C(C)(C)O)[C@H](O)C[C@@]12C (some centres undefined)
Result: > 100 µM

Query: What value of TGI has been recorded for this entry: O=C(CC(O)(C(F)(F)F)C(F)(F)Cl)CC(O)(C(F)(F)F)C(F)(F)Cl (centres undefined)
Result: > 10 µM

Query: What value of TGI has been recorded for this entry: `CC1=C(C(=O)NCc2ccccc2)C(c2ccc(Cl)c(Cl)c2)C(C(=O)NCc2ccccc2)=C(C)N1`
Result: > 100 µM

Query: What value of TGI has been recorded for this entry: `CNC(=O)c1cc(Oc2cccc3nc(NC(=O)Nc4cc(C(F)(F)F)cc(C(F)(F)F)c4)ccc23)ccn1`
Result: 5.73 µM

Query: What value of TGI has been recorded for this entry: `CO/N=C(/C)c1cccc(Nc2nc3ccc(Cl)cc3c3[nH]c4ccccc4c23)c1`
Result: 20.5 µM

Query: What value of TGI has been recorded for this entry: `O=C1C[C@H](COCc2ccccc2)NC(=O)C[C@H](COCc2ccccc2)NC(=O)C[C@H](COCc2ccccc2)N1`
Result: > 100 µM

Query: What value of TGI has been recorded for this entry: `O=C(O)c1nc2ccc(Cl)cc2[nH]c1=O`
Result: > 100 µM

Query: What value of TGI has been recorded for this entry: `C[P+](C)(C)C`
Result: > 100 µM

Query: What value of TGI has been recorded for this entry: C1OC1CN1CCN(CC2CO2)CC1 (centres undefined)
Result: > 100 µM

Query: What value of TGI has been recorded for this entry: `Cc1coc2c1C(=O)C(=O)c1ccccc1-2`
Result: 3.24 µM

Query: What value of TGI has been recorded for this entry: `c1ccc(CN2CCc3[nH]c4ccccc4c3C2)cc1`
Result: 44.5 µM

Query: What value of TGI has been recorded for this entry: `CNCC/C=C1\c2cc3c(cc2-c2c1c1cc(OC)c(OC)cc1c(=O)n2C)OCO3`
Result: 33 µM

Query: What value of TGI has been recorded for this entry: O=C(O)C1OC1C(=O)O (centres undefined)
Result: > 100 µM

Query: What value of TGI has been recorded for this entry: `CC1=NN(c2nc(N)nc(CSc3cc(Cl)c(C)cc3S(N)(=O)=O)n2)C(C)(C)C1`
Result: > 10 µM

Query: What value of TGI has been recorded for this entry: `C=C1[C@H]2O[C@H]2[C@@H](OC(C)=O)[C@@]2(C)[C@@H](OC(C)=O)C[C@@H](OC(=O)CCC)[C@@](C)(O)[C@@H]2[C@@H](OC(C)=O)[C@]2(O)[C@@H](C)C(=O)O[C@H]2[C@H]1Cl`
Result: > 100 µM

Query: What value of TGI has been recorded for this entry: `O=C1CNC(=O)/C(=C/c2c[nH]c3ccccc23)N1`
Result: > 100 µM

Query: What value of TGI has been recorded for this entry: `O=C(NCCc1ccccc1)Nc1ccc2cc3ccc(NC(=O)NCCc4ccccc4)cc3nc2c1`
Result: 6.93 µM

Query: What value of TGI has been recorded for this entry: `Nc1nonc1-c1nc2ccccc2n1Cc1ccc(F)cc1`
Result: > 100 µM

Query: What value of TGI has been recorded for this entry: `N#Cc1ccc(-c2c(-c3ncn[nH]3)sc(N3CCOCC3)c2C#N)c(F)c1`
Result: 12.1 µM

Query: What value of TGI has been recorded for this entry: `COc1cccc(/C=C/c2nc3c(cnn3-c3ccccc3)c(=O)[nH]2)c1`
Result: > 100 µM

Query: What value of TGI has been recorded for this entry: `Cc1ccc(S(=O)(=O)N2CCCSCCSCCCN(S(=O)(=O)c3ccc(C)cc3)CC2)cc1`
Result: > 100 µM

Query: What value of TGI has been recorded for this entry: `COC(=O)c1cccc2c3ccccc3c3ccccc3c12`
Result: > 100 µM

Source: PubChem BioAssay (NCI)
